target under test: human cloned CHRM2 receptor (Homo sapiens)
method summary: CHRM2 Ca++ Flux Assay (M2_CHO cells, agonist mode)
applied conditions: M2 CHO cells, agonist mode; geometric mean if tested more than once; read-out: M2 FDSS EC50
pEC50: −log10 of the molar value.
quantity kind: pEC50

[
  {
    "compound": "Fc1ccc(O[C@H]2CCCOC2)c(C2CCN([C@@H]3COC4(C3)CN(c3nnco3)C4)CC2)c1 (single isomer, unassigned) [Example 2Q]",
    "target under test": "human cloned CHRM2 receptor (Homo sapiens)",
    "meas value": 5.94
  }
]

a = Cc1cc(COc2ccc(F)cc2C2CCN([C@@H]3COC4(C3)CN(c3nnco3)C4)CC2)on1 [Example 2G]
b = OC1(COc2ccc(F)cc2C2CCN([C@@H]3COC4(C3)CN(c3nnco3)C4)CC2)COC1 [Example 2U]
Query: Between item a and item b , which reported pEC50 is smaller? Answer by stating the label of the chosen item.
Response: b

* * *

target under test: human cloned CHRM2 receptor (Homo sapiens)
Sequence (P08172 1-466): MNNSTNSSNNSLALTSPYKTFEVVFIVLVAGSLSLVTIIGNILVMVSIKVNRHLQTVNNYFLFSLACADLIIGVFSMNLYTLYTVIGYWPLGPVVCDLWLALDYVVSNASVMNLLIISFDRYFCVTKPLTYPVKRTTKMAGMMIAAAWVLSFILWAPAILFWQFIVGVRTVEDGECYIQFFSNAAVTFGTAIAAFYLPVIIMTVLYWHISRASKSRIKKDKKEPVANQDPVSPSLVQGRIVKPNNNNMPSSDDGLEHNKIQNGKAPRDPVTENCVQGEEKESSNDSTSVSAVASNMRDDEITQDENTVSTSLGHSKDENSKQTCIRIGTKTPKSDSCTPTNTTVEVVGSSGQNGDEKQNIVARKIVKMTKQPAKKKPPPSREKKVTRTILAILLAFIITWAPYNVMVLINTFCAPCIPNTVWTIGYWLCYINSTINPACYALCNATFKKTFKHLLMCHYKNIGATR
method summary: CHRM2 Ca++ Flux Assay (M2_CHO cells, agonist mode)
applied conditions: M2 CHO cells, agonist mode; geometric mean if tested more than once; read-out: M2 FDSS EC50
quantity kind: EC50 (nM)

[
  {
    "compound": "Fc1cc(F)c(OC2CC3(COC3)C2)c(C2CCN([C@@H]3COC4(C3)CN(c3nnco3)C4)CC2)c1",
    "EC50, nM": 7980
  },
  {
    "compound": "CC(C)(C#N)COc1ccc(F)cc1C1CCN([C@@H]2COC3(C2)CN(c2nnco2)C3)CC1",
    "EC50, nM": 557
  },
  {
    "compound": "Fc1ccc(OCC2C3COCC32)c(C2CCN([C@@H]3COC4(C3)CN(c3nnco3)C4)CC2)c1 (some centres unmarked)",
    "EC50, nM": 760
  },
  {
    "compound": "Cc1nnc(COc2ccc(F)cc2C2CCN([C@@H]3COC4(C3)CN(c3nnco3)C4)CC2)s1",
    "EC50, nM": 81
  }
]

a = COc1ccccc1C1CCN([C@@H]2COC3(C2)CN(c2nnco2)C3)CC1
b = CC(C)(O)COc1ccc(F)cc1C1CCN([C@@H]2COC3(C2)CN(c2nncs2)C3)CC1
Query: Could you please tell me which of these two has the higher EC50: a or b ? Answer by stating the label of the chosen item.
Response: a

* * *

target under test: human cloned CHRM4 receptor (Homo sapiens, UniProt P08173)
Construct: expressed in transfected cells; host or cells: CHO-K1 (M4_CHO)
Sequence (P08173 whole entry): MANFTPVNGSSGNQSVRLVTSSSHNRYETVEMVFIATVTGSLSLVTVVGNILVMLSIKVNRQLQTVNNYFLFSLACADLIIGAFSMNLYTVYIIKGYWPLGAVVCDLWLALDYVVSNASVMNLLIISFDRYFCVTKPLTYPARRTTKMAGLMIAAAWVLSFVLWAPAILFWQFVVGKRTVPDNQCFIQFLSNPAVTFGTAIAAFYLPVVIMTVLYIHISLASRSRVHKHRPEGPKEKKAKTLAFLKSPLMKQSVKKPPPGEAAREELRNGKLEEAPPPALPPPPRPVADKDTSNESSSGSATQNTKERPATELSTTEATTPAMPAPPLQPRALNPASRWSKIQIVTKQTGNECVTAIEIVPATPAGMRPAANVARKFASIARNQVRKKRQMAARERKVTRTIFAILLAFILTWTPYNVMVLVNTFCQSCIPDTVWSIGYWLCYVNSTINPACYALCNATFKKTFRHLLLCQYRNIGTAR
method summary: CHRM4 Ca++ Flux Assay (M4_CHO cells, agonist mode)
Format: cell-based
applied conditions: Percent Activity (PA), read-out: M4 FDSS PA %
quantity kind: Emax (%)

Use these answered entries as a reference point.
[
  {
    "line notation": "Fc1cc(F)c(OCC2COC2)c(C2CCN([C@@H]3COC4(C3)CN(c3nnco3)C4)CC2)c1",
    "target under test": "human cloned CHRM4 receptor (Homo sapiens, UniProt P08173)",
    "meas value": 64
  },
  {
    "line notation": "Fc1ccc(O[C@@H]2CCOC2)c(C2CCN([C@@H]3COC4(C3)CN(c3ncco3)C4)CC2)c1",
    "target under test": "human cloned CHRM4 receptor (Homo sapiens, UniProt P08173)",
    "meas value": 77
  },
  {
    "line notation": "Fc1cc(F)c(OC2COC2)c(C2CCN([C@@H]3COC4(C3)CN(c3nnco3)C4)CC2)c1",
    "target under test": "human cloned CHRM4 receptor (Homo sapiens, UniProt P08173)",
    "meas value": 74
  },
  {
    "line notation": "Fc1ccc(OC[C@@H]2COCCO2)c(C2CCN([C@@H]3COC4(C3)CN(c3nnco3)C4)CC2)c1",
    "target under test": "human cloned CHRM4 receptor (Homo sapiens, UniProt P08173)",
    "meas value": 78
  },
  {
    "line notation": "CC(C)(O)CCOc1cc(F)ccc1C1CCN([C@@H]2COC3(C2)CN(c2nncs2)C3)CC1",
    "target under test": "human cloned CHRM4 receptor (Homo sapiens, UniProt P08173)",
    "meas value": 40
  },
  {
    "line notation": "Fc1ccc(OC[C@@H]2COCCO2)c(C2CCN([C@@H]3COC4(C3)CN(c3nncs3)C4)CC2)c1",
    "target under test": "human cloned CHRM4 receptor (Homo sapiens, UniProt P08173)",
    "meas value": 79
  },
  {
    "line notation": "Cc1nc(COc2ccccc2C2CCN([C@@H]3COC4(C3)CN(c3nncs3)C4)CC2)no1",
    "target under test": "human cloned CHRM4 receptor (Homo sapiens, UniProt P08173)",
    "meas value": 90
  },
  {
    "line notation": "CC(C)(O)COc1ccc(F)cc1C1CCN([C@@H]2COC3(C2)CN(c2ncns2)C3)CC1",
    "target under test": "human cloned CHRM4 receptor (Homo sapiens, UniProt P08173)",
    "meas value": 66
  },
  {
    "line notation": "CC1(COc2ccc(F)cc2C2CCN([C@@H]3COC4(C3)CN(c3nncs3)C4)CC2)COC1",
    "target under test": "human cloned CHRM4 receptor (Homo sapiens, UniProt P08173)",
    "meas value": 71
  },
  {
    "line notation": "Fc1ccc(OC2CCOCC2)c(C2CCN([C@@H]3COC4(C3)CN(c3ncon3)C4)CC2)c1",
    "target under test": "human cloned CHRM4 receptor (Homo sapiens, UniProt P08173)",
    "meas value": 74
  }
]

A = COc1cc(F)ccc1C1CCN([C@@H]2COC3(C2)CN(c2ncns2)C3)CC1
B = Fc1ccc(OC2CCOCC2)c(C2CCN([C@@H]3COC4(C3)CN(c3nncs3)C4)CC2)c1
Query: Could you please tell me which of these two has the higher Emax: A or B ? Answer by stating the label of the chosen item.
Response: B
(B: 92%, A: 39%)

* * *

target under test: Cloned human M1 receptor (CHRM1) (Homo sapiens, UniProt P11229)
Construct: expressed in transfected cells; host or cells: HEK293
Sequence (P11229 whole entry): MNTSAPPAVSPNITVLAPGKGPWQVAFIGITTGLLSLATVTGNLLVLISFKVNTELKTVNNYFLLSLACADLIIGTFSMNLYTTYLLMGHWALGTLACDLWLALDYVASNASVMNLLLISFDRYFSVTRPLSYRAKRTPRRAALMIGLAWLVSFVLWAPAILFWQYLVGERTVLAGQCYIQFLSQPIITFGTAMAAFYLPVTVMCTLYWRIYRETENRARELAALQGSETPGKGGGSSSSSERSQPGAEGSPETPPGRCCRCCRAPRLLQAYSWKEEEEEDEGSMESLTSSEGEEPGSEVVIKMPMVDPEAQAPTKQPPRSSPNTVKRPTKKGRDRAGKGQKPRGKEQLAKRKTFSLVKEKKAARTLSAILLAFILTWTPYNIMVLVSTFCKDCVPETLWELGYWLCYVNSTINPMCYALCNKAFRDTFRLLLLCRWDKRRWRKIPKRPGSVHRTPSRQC
method summary: CHRM1 Ca++ Flux Assay (HEK293 M1 cells, agonist mode)
Format: cell-based
applied conditions: Percent Activity (PA)
quantity kind: M1 FDSS PA % (%)

Use these answered entries as a reference point.
[
  {
    "compound": "Fc1ccc([C@H]2CCOC2)c(C2CCN([C@@H]3COC4(C3)CN(c3nnco3)C4)CC2)c1 (single isomer, unassigned) [Example 3F]",
    "target under test": "Cloned human M1 receptor (CHRM1) (Homo sapiens, UniProt P11229)",
    "output unit": "%",
    "M1 FDSS PA %": 86
  },
  {
    "compound": "Fc1ccc(O[C@H]2CCCOC2)c(C2CCN([C@@H]3COC4(C3)CN(c3nnco3)C4)CC2)c1 (single isomer, unassigned) [Example 2R]",
    "target under test": "Cloned human M1 receptor (CHRM1) (Homo sapiens, UniProt P11229)",
    "output unit": "%",
    "M1 FDSS PA %": 56
  }
]

1 = CC(C)(O)[C@H]1C[C@H](Oc2ccc(F)cc2C2CCN([C@@H]3COC4(C3)CN(c3nnco3)C4)CC2)C1 (single isomer, unassigned) [Example 2V]
2 = CC(C)(O)[C@H]1C[C@H](Oc2ccc(F)cc2C2CCN([C@@H]3COC4(C3)CN(c3nnco3)C4)CC2)C1 (single isomer, unassigned) [Example 2W]
3 = OC[C@H]1C[C@H](Oc2ccc(F)cc2C2CCN([C@@H]3COC4(C3)CN(c3nnco3)C4)CC2)C1 (single isomer, unassigned) [Example 2II]
Query: Your job: order these 3 records by M1 FDSS PA %, ascending. Please reply with the labels ordered as requested. Many thanks.
Response: 1, 2, 3
